Data origin: ChEMBL document CHEMBL4270628

molecular target: Proteasome subunit beta type-1 (Saccharomyces cerevisiae (strain ATCC 204508 / S288c) (Baker's yeast)); test: Inhibition of yeast 20S proteasome beta1 subunit using fluorescent substrate pretreated for 30 mins followed by substrate addition and measured after 60 mins by fluorescence assay
Sequence (P38624 whole entry): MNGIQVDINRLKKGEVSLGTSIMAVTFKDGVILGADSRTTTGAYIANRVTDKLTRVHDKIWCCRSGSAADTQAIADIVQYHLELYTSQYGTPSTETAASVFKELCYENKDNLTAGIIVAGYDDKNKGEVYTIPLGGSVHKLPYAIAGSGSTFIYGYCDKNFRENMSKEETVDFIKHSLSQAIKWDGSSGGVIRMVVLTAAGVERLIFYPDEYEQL
quantity_measured: IC50 (nM)
The reply should contain only the number, in nM.

Consider the reported IC50 for these compounds:
compound_smiles	IC50 / nM
C=CCOC(=O)[C@@H](NC(=O)[C@@H](NC(=O)[C@@H]1OC(=O)[C@H]1[C@@H](C)CC)C(C)C)C(C)C	779
CC[C@H](C)[C@@H]1C(=O)O[C@H]1C(=O)N[C@H](C(=O)N[C@H](C(=O)NCc1ccccc1)C(C)C)C(C)C	1380
CC(C)[C@H](NC(=O)[C@@H](NC(=O)[C@@H]1OC(=O)[C@H]1C(C)C)C(C)C)C(=O)O	10100

We next turn to a different compound, shown below.
Quick one: IC50 of `CC[C@H](C)[C@@H]1C(=O)O[C@H]1C(=O)N[C@H](C(=O)N[C@@H](COCc1ccccc1)C(=O)OCc1ccccc1)C(C)C` ?
17800

----------
Quick reference: IC50 of the listed items.
system: MCF7; assay: Cytotoxicity against human MCF7 cells after 48 hrs by MTT assay; format: functional, cell-based; details: MCF7, 48 h
The reply should contain only the number, in µM.

> print(dat)
                            compound.smiles  quantity.measured  units  recorded.measurement
1  CC[C@H](C)[C@@H]1C(=O)O[C@H]1C(=O)N[C@H](C(=O)N[C@@H](Cc1ccccc1)C(=O)OCc1ccccc1)C(C)C               IC50     µM                  2.75
2  CC(C)[C@H](NC(=O)[C@@H](NC(=O)[C@@H]1OC(=O)[C@H]1C(C)C)C(C)C)C(=O)O               IC50     µM                  84.7
3  CC[C@H](C)[C@@H]1C(=O)O[C@H]1C(=O)N[C@@H](COCc1ccccc1)C(=O)N[C@H](C(=O)OCc1ccccc1)C(C)C               IC50     µM                  3.45
4  CC(C)C[C@H](NC(=O)[C@H](CCc1ccccc1)NC(=O)CN1CCOCC1)C(=O)N[C@@H](Cc1ccccc1)C(=O)N[C@@H](CC(C)C)C(=O)[C@@]1(C)CO1               IC50     µM                0.0041
5  C=CCCOC(=O)[C@@H](NC(=O)[C@@H](NC(=O)[C@@H]1OC(=O)[C@H]1[C@@H](C)CC)C(C)C)C(C)C               IC50     µM                 0.523
6  CC[C@H](C)[C@@H]1C(=O)O[C@H]1C(=O)N[C@H](C(=O)N[C@H](C(=O)OC)C(C)C)C(C)C               IC50     µM                 0.427

Quick one: IC50 of `CC[C@H](C)[C@@H]1C(=O)O[C@H]1C(=O)N[C@H](C(=O)N[C@H](C(=O)OCc1ccccc1)C(C)C)C(C)C` ?
1.85

Quick one: IC50 of `CC[C@H](C)[C@@H]1C(=O)O[C@H]1C(=O)NCC(=O)N[C@H](C(=O)OCc1ccccc1)C(C)C` ?
2.08

Quick one: IC50 of `CC(C)C[C@@H]1C(=O)O[C@H]1C(=O)N[C@H](C(=O)N[C@H](C(=O)OCc1ccccc1)C(C)C)C(C)C` ?
55.3
